Field: Kd. Provide a value for each of the compounds that follow.
targetSystem: hNav1.7 (Homo sapiens (Human), UniProt Q15858)
Sequence (Q15858 other isoform, or with tags, fused parts or gaps): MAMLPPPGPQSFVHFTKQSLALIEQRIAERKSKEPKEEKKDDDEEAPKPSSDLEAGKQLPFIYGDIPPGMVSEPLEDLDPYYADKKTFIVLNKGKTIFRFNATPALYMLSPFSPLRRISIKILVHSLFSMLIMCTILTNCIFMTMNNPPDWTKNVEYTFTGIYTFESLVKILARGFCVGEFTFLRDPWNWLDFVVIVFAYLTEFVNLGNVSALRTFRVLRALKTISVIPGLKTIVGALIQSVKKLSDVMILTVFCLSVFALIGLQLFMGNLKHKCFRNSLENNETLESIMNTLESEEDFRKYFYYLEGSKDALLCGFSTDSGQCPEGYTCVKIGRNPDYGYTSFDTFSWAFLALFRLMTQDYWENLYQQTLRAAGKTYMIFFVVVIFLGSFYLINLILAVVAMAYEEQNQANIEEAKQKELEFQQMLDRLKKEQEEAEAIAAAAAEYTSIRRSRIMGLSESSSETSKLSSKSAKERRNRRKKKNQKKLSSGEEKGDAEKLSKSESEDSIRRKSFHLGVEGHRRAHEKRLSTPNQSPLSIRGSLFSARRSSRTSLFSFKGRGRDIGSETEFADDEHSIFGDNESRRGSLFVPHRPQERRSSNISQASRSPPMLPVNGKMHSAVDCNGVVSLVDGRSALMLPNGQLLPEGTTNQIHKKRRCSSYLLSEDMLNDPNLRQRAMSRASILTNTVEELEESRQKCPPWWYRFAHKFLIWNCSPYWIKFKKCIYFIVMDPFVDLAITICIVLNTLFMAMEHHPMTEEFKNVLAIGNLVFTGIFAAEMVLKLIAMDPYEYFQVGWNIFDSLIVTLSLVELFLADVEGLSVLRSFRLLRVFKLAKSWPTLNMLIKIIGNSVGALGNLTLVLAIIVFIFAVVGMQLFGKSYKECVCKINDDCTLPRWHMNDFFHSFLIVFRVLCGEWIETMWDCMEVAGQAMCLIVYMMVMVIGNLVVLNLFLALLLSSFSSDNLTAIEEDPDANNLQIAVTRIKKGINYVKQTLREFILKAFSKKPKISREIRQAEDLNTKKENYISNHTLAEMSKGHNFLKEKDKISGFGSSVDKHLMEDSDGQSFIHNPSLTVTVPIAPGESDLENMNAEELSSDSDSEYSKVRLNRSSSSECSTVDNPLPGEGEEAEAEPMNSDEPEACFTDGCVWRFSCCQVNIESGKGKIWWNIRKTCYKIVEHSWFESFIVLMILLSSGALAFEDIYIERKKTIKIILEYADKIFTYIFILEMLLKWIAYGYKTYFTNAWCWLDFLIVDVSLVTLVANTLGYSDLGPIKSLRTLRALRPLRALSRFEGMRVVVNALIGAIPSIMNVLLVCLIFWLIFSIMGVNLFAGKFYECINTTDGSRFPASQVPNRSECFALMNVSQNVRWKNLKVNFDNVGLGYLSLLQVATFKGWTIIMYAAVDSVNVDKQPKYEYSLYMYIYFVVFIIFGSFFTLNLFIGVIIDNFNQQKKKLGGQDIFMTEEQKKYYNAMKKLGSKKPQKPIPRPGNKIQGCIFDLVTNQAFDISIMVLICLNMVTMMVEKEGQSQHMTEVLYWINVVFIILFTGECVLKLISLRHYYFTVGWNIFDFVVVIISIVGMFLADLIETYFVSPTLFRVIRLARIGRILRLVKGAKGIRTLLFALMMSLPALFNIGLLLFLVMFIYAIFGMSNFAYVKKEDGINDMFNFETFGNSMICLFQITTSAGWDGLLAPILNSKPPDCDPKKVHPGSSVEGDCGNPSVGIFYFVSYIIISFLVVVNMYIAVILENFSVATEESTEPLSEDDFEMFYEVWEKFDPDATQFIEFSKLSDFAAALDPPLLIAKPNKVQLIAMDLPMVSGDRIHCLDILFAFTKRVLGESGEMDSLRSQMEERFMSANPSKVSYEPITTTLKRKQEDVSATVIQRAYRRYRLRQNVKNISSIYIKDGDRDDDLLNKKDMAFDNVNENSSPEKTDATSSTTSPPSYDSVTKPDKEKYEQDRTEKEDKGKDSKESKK
assayExplanation: Electrophysiology (EP) assay, whole-cell patch clamp
Type: cell-based
runParameters: resting block dissociation constant; hNav1.7 HEK-293 cells; read-out: Nav1.7 Activity (μM) EP assay Kr
Numbers only, in µM.

For orientation, consider the following solved cases.
compound: O=C(Nc1cccc(-c2ccc(Oc3ccc(F)cc3)cc2)n1)C(O)CO (stereo not shown)
unitsText: µM
Kd: 8.91
--
compound: O=C(N[C@@H](Cc1c[nH]cn1)C(=O)Nc1cccc(-c2ccc(Oc3ccc(F)cc3)cc2)n1)C1CC1
unitsText: µM
Kd: 5.31
--
compound: CC(C)C[C@H](NC(=O)NC(C)(C)C)C(=O)Nc1cccc(-c2ccc(Oc3ccc(F)cc3)cc2)n1
unitsText: µM
Kd: 10.2

Please fill in: Kd reported for O=C(N[C@@H](CO)C(=O)Nc1cccc(-c2ccc(Oc3ccc(F)cc3)cc2)n1)c1cccnc1 = 32.2

// data source = patent US9656959B2
